The measurements presented in this section are drawn from the supplement of paper PMC10567573.

Can you tell me protein stability index for the items I'm about to list?
B1: SLC35F2 (parent)
chain: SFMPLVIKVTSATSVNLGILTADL

Variants of: B1
Assay: protein stability index of a GFP-peptide fusion (GPS, HEK-293T) (PSI 1-6); higher = more stable;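 also: lentivirally expressed fusions sorted by FACS into six bins by GFP to DsRed ratio, PSI derived from sequencing read proportions per bin multiplied by bin number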
Conditions: c terminus: a fixed tail appended
Please reply with the value in numeric form only.

Ask: Annotate the variant A12R with its measured protein stability index.
Reply: 2.75

Ask: Quick one: give measured protein stability index for I7G
Reply: 2.17

Ask: # return recorded protein stability index for input A12Y
Reply: 1.73

Ask: In one line, give reported protein stability index of the entry V15A .
Reply: 3.38

Ask: Give a short answer stating reported protein stability index for S11A .
Reply: 4.19

Ask: Look up and report measured protein stability index for this entry: T21D
Reply: 2.61

Ask: Answer with the recorded protein stability index for the variant listed here: V6S
Reply: 2

Ask: // Input: L20V . Output its protein stability index only.
Reply: 3.65

Ask: Determine its reported protein stability index: K8N
Reply: 3.01

Ask: Complete the entry with protein stability index for K8H
Reply: 2.59

Ask: Return value of protein stability index for input P4E , no commentary.
Reply: 3.23

Ask: Quick one: give measured protein stability index for D23P
Reply: 2.65

Ask: Identify protein stability index associated with the variant A12S
Reply: 1.89

Ask: Hello, please tell me recorded protein stability index for this one: A12D
Reply: 2.82

Ask: Using the record for A12F , state its measured protein stability index.
Reply: 2.25

Ask: Indicate its recorded protein stability index; the variant in question is A22C
Reply: 4.09

Ask: Give a short answer stating reported protein stability index for N16Y .
Reply: 3.46

Ask: Using known records, supply protein stability index for D23T
Reply: 3.29

Ask: Using known records, supply protein stability index for T10P
Reply: 1.31

Ask: Name the recorded protein stability index of the item L5S in your answer.
Reply: 1.47

Ask: Give the reported value of protein stability index for this record: V15F
Reply: 3.58

Ask: Report protein stability index for V6K
Reply: 2.88
